The values you see were collected from the supplement of paper PMC8882468.

System: HCI-016 (organoid from a triple-negative breast cancer xenograft)
Test: CTG-3D luminescence at 96 h relative to day-0 seeding control (ratio to day 0); higher = more growth / less cytotoxicity; PDxO 3D drug screen, 96 h, CTG-3D normalised to day-0 seeding control.
Details: 12.5 pM; days in culture: 153
measure-name: CTG-3D luminescence at 96 h
Numbers only.

1) CCc1c2c(nc3ccc(O)cc13)-c1cc3c(c(=O)n1C2)COC(=O)[C@]3(O)CC [SN-38]    2.8
2) COc1cc2c(Oc3ccc4[nH]c(C)cc4c3F)ncnc2cc1OCCCN1CCCC1 [cediranib]    3.21
3) C[C@H](NC(=O)CCC(F)(F)F)C(=O)N[C@@H]1C(=O)N(CCO)c2ncccc2-c2ccccc21 [crenigacestat]    2.83

Continue with the next molecule.
// CTG-3D luminescence at 96 h lookup, key: C/C=C1\NC(=O)[C@H]2CSSCC/C=C/[C@H](CC(=O)N[C@H](C(C)C)C(=O)N2)OC(=O)[C@H](C(C)C)NC1=O [romidepsin]
2.79

----------
Test system: HCI-012 (organoid from a breast cancer xenograft)
Assay: CTG-3D luminescence at 96 h relative to day-0 seeding control (ratio to day 0); higher = more growth / less cytotoxicity; PDxO 3D drug screen, 96 h, CTG-3D normalised to day-0 seeding control.
Details: 1 µM; days in culture: 143
Tag: Y if measured CTG-3D luminescence at 96 h is not below 1, N if it is.

Known results for molecules:
1. C/C=C1\NC(=O)[C@H]2CSSCC/C=C/[C@H](CC(=O)N[C@H](C(C)C)C(=O)N2)OC(=O)[C@H](C(C)C)NC1=O    N
2. C[C@]12CC[C@@H]3c4ccc(O)cc4C[C@@H](CCCCCCCCC[S+]([O-])CCCC(F)(F)C(F)(F)F)[C@H]3[C@@H]1CC[C@@H]2O (stereo partly drawn)    Y

Decide: is the reported value of CTG-3D luminescence at 96 h for CNC(=O)c1cccc(-c2ccc3c(N4CCOC[C@@H]4C)nc(N4CCOC[C@@H]4C)nc3n2)c1 equal to or greater than 1?
Y

Is reported CTG-3D luminescence at 96 h greater than or equal to 1 here: CC(=O)O[C@H]1C(=O)[C@@]2(C)[C@H]([C@H](OC(=O)c3ccccc3)[C@]3(O)C[C@H](OC(=O)[C@H](O)[C@@H](NC(=O)c4ccccc4)c4ccccc4)C(C)=C1C3(C)C)[C@]1(OC(C)=O)CO[C@@H]1C[C@@H]2O
N

Test whether the molecule C=CCn1c(=O)c2cnc(Nc3ccc(N4CCN(C)CC4)cc3)nc2n1-c1cccc(C(C)(C)O)n1 records CTG-3D luminescence at 96 h of 1 or higher.
Y

Has C=CC(=O)N1CCC[C@@H](n2nc(-c3ccc(Oc4ccccc4)cc3)c3c(N)ncnc32)C1 a recorded CTG-3D luminescence at 96 h greater than or equal to 1?
Y

Hi team, for Cc1cc(Nc2ncc(Cl)c(Nc3ccccc3S(=O)(=O)C(C)C)n2)c(OC(C)C)cc1C1CCNCC1 , is the recorded CTG-3D luminescence at 96 h at or above 1?
Y

Is CTG-3D luminescence at 96 h at least 1? Consider CC(C)n1nc(-c2ccc3oc(N)nc3c2)c2c(N)ncnc21
N

----------
Please go through the items and note down their CTG-3D luminescence at 96 h.
System: HCI-011.E2 (organoid from an ER-positive breast cancer xenograft)
Assay: CTG-3D luminescence at 96 h relative to day-0 seeding control (ratio to day 0); higher = more growth / less cytotoxicity; PDxO 3D drug screen, 96 h, CTG-3D normalised to day-0 seeding control.
Conditions: 0.00025 µM

The following molecules have reported results that may help.
1) Cc1nc(-c2cn3c(n2)-c2ccc(-c4cnn(C(C)(C)C(N)=O)c4)cc2OCC3)n(C(C)C)n1    1.59
2) C=CC(=O)N1CCC[C@@H](n2nc(-c3ccc(Oc4ccccc4)cc3)c3c(N)ncnc32)C1    1.71
3) NC(=O)Nc1cc(-c2cccc(F)c2)sc1C(=O)N[C@H]1CCCNC1    1.86

Kindly state the measured CTG-3D luminescence at 96 h obtained for O=C(c1ccc(F)c(F)c1Nc1ccc(I)cc1F)N1CC(O)([C@@H]2CCCCN2)C1 with HCI-011.E2.
1.69

----------
System: HCI-015 (organoid from a triple-negative breast cancer xenograft)
Test: CTG-3D luminescence at 96 h relative to day-0 seeding control (ratio to day 0); higher = more growth / less cytotoxicity; PDxO 3D drug screen, 96 h, CTG-3D normalised to day-0 seeding control.
Details: 12.5 pM; days in culture: 191
measure-name: CTG-3D luminescence at 96 h
One number for each entry.

Below are 3 compounds. Give each one its CTG-3D luminescence at 96 h.
1. CC[C@H](NC(=O)[C@H](C)NC)C(=O)N1C[C@@H](O)C[C@H]1Cc1c(-c2[nH]c3cc(F)ccc3c2C[C@@H]2C[C@H](O)CN2C(=O)[C@H](CC)NC(=O)[C@H](C)NC)[nH]c2cc(F)ccc12
2. C=CCn1c(=O)c2cnc(Nc3ccc(N4CCN(C)CC4)cc3)nc2n1-c1cccc(C(C)(C)O)n1
3. CC(=O)O[C@H]1C(=O)[C@@]2(C)[C@H]([C@H](OC(=O)c3ccccc3)[C@]3(O)C[C@H](OC(=O)[C@H](O)[C@@H](NC(=O)c4ccccc4)c4ccccc4)C(C)=C1C3(C)C)[C@]1(OC(C)=O)CO[C@@H]1C[C@@H]2O

1: 0.803; 2: 2.26; 3: 1.87

State the recorded CTG-3D luminescence at 96 h for every item in the following list.
1. CNC(=O)c1cccc(-c2ccc3c(N4CCOC[C@@H]4C)nc(N4CCOC[C@@H]4C)nc3n2)c1
2. CC1(C)CCC(c2ccc(Cl)cc2)=C(CN2CCN(c3ccc(C(=O)NS(=O)(=O)c4ccc(N[C@H](CCN5CCOCC5)CSc5ccccc5)c(S(=O)(=O)C(F)(F)F)c4)cc3)CC2)C1
3. C[C@H](NC(=O)CCC(F)(F)F)C(=O)N[C@@H]1C(=O)N(CCO)c2ncccc2-c2ccccc21

1. 1.84
2. 2.56
3. 1.82

----------
Test system: HCI-016
Assay: CTG-3D luminescence at 96 h relative to day-0 seeding control (ratio to day 0); higher = more growth / less cytotoxicity; PDxO 3D drug screen, 96 h, CTG-3D normalised to day-0 seeding control.
Conditions: 100 µM; days in culture: 190
Threshold rule: CTG-3D luminescence at 96 h greater than or equal to 0.05 is criterion met; below that, criterion not met.

Check out these entries, answers already filled in.
1. NC1(C(=O)N[C@@H](CCO)c2ccc(Cl)cc2)CCN(c2nc[nH]c3nccc2-3)CC1    criterion met
2. O=C(/C=C/c1cccnc1)NCCCCC1CCN(C(=O)c2ccccc2)CC1    criterion not met
3. Nc1ccn([C@@H]2O[C@H](CO)[C@@H](O)C2(F)F)c(=O)n1    criterion met
4. CS(=O)(=O)c1ccc(C(=O)Nc2ccc(Cl)c(-c3ccccn3)c2)c(Cl)c1    criterion met

Check if CTG-3D luminescence at 96 h >= 0.05 (inclusive). Item: CCN(c1cc(C#CCN2CCOCC2)cc(C(=O)NCc2c(C)cc(C)[nH]c2=O)c1C)[C@H]1CC[C@H](N(C)CCOC)CC1
criterion met

----------
Tested on: HCI-001 (organoid from a triple-negative breast cancer xenograft)
Assay: CTG-3D luminescence at 96 h relative to day-0 seeding control (ratio to day 0); higher = more growth / less cytotoxicity; PDxO 3D drug screen, 96 h, CTG-3D normalised to day-0 seeding control.
Settings: 100 µM; days in culture: 269
Hi there, I'd appreciate the recorded CTG-3D luminescence at 96 h for every entry that follows.
Give bare numbers.

Required: CTG-3D luminescence at 96 h, one value per compound below.
1. CCN(c1cc(C#CCN2CCOCC2)cc(C(=O)NCc2c(C)cc(C)[nH]c2=O)c1C)[C@H]1CC[C@H](N(C)CCOC)CC1
2. O=C(c1ccc(F)c(F)c1Nc1ccc(I)cc1F)N1CC(O)([C@@H]2CCCCN2)C1
3. Cc1cc(Nc2ncc(Cl)c(Nc3ccccc3S(=O)(=O)C(C)C)n2)c(OC(C)C)cc1C1CCNCC1

1: 1.29; 2: -0.00203; 3: -0.0412

----------
Please go through the items and note down their CTG-3D luminescence at 96 h.
Test system: HCI-011.E2
Assay: CTG-3D luminescence at 96 h relative to day-0 seeding control (ratio to day 0); higher = more growth / less cytotoxicity; PDxO 3D drug screen, 96 h, CTG-3D normalised to day-0 seeding control.
Settings: 0.00025 µM
Numbers only.

Use these answered entries as a reference point.
1) C/C=C1\NC(=O)[C@H]2CSSCC/C=C/[C@H](CC(=O)N[C@H](C(C)C)C(=O)N2)OC(=O)[C@H](C(C)C)NC1=O    1.34
2) O=C(/C=C/c1cccnc1)NCCCCC1CCN(C(=O)c2ccccc2)CC1    1.7
3) Cc1cc(Nc2ncnc3ccc(NC4=NC(C)(C)CO4)cc23)ccc1Oc1ccn2ncnc2c1    1.59
4) O=C(O)C1(C(=O)O)CCC1.[NH2-].[NH2-].[Pt+2]    1.72
5) C=CCn1c(=O)c2cnc(Nc3ccc(N4CCN(C)CC4)cc3)nc2n1-c1cccc(C(C)(C)O)n1    1.67
6) CC1(C)CCC(c2ccc(Cl)cc2)=C(CN2CCN(c3ccc(C(=O)NS(=O)(=O)c4ccc(N[C@H](CCN5CCOCC5)CSc5ccccc5)c(S(=O)(=O)C(F)(F)F)c4)cc3)CC2)C1    1.82

# get_value(readout= CTG-3D luminescence at 96 h, system= HCI-011.E2) for Nc1ccn([C@@H]2O[C@H](CO)[C@@H](O)C2(F)F)c(=O)n1
1.78
